- experimental protocol: folding stability dG unfold from trypsin proteolysis; higher = more stable
Answer each item with its documented folding stability dG unfold.
Give bare numbers, in kcal/mol.

SAGGSAGGSAGGSVSSVSTTSSPVVDPETGPASTVTTHSVPGGPATTVVMTPDSTTTTGSAGGSAGGSAGGS [r10_384_JUSTAS]; 1.92

Items follow; give folding stability dG unfold for each.
1. SAGGKVYYIEIPPELLEAFPDLVVEPVEQPEDFVVAPVFLSDKVLLVPIRVFSEDGKELFDFTLTSNPSAGG [r13_129_TrMRF]
2. SYIKIPFNVWMPPDNAEAMAEEFANNLAQKHGWKIKGIKPVEPVPSPDGEWYPFRVSITIRMPDPEAINASA [r9_302_TrROS]
3. SAGGSAGGSAGGDPNDKPKEERRIKIKVRPTNVQRDPDNGMLWYSWRLEGLSITIMIPASAGGSAGGSAGGS [r10_962_TrROS]

Response:
1.18
1.62
1.86

Items follow; give folding stability dG unfold for each.
1. SAGGSAGGSAGMKLTITVTFPDGTTPTFEVPPNSGDPAEVAAAIRAAHPDVVTITITPELSAGGSAGGSAGG [r11_311_JUSTAS]
2. SAGGSAGGSAGGMYIATFKPPDGSEITVKLNPGEKVTIKLKDGTPAGVVSKKAVSPELLSAGGSAGGSAGGS [r10_422_JUSTAS]
3. SAGGTKTINIKNMPPNDPERMVRTARHLLKELKQKGPGKTITIHMDNPWAREVAEYLKKEGIPIEVHSAGGS [r16_450_TrROS]
4. SAGMVEVLEEKTDPNSDLVTVTLYAPDVPDGFRVVVYPKDGVPIEISIKRGEEVVLKLPANVEKIEFIGSAG [r14_671_JUSTAS]
5. SAMEIEIEPLEKEELLKLPGAEIRLFYFPDRVLAEILLPDGTPFFVEFDPSLKPEEVLEKLLKLLEELGSAG [r14_618_TrMRF]

Response:
1: 0.683; 2: -0.245; 3: 0.581; 4: 2.55; 5: 3.98

Items follow; give folding stability dG unfold for each.
1. SAGGSAGGKEFEIEKVEITVENGTITIRMIVRDKETNEYYEVEKTITFDPETKELHVEIKVKKVSAGGSAGG [r6_604_TrROS_Hall]
2. SAGGSAGGSAKAKIKKVEVEKEGDKLRVTAEIELEDGYVLKVSFEFKDDEIKMEIEIVPLKDSAGGSAGGSA [r18_79_TrROS_Hall]
3. SAGGKIEVEPEVELYRTPDGRLVARPKPVKVKITLKLTITNENGEKKTIEVEADTPEEALAALKALSSAGGS [r8_440_TrROS_Hall]
4. SAGGSAGGSAKPVLEVEITVEVNGKLYKVRARVELEETPDGLVLKVEVELENGEKFEFTLKLSAGGSAGGSA [r18_54_TrROS_Hall]
5. MIPLTLEYDPEKKVIRLKTPDGKPVIVEAGDKGYRVIIYDPKTGKPTVIPVTEKELLDLAKNPAFNLDLAAS [r1_18_TrMRF]
6. MTPDDMKDPNGMPPEDMWMVEIYVPRRDPEDGGPKWKPVGTIFIPPGMDPEELNEIIEELPGLDLIEIYPMS [r1_132_TrROS]
7. SADPGDTVELEFWLPPGMNPEFVEQMEDEIRNILRDLGLEVDVKVEPDPDNGYVPVTITITKEQLKDLFSAG [r14_602_TrROS]
8. SEEELENLPNVVRLELEVEIDGVRVRIETEFRLNEDGSLEVRTRIEVEPLPPPVEVVLDENGELVEVRVESA [r9_456_TrROS_Hall]

Response:
4.19
3.02
1.03
4.42
1.94
1.03
1.93
2.81
